Biological target: Breakpoint cluster region protein (Homo sapiens, UniProt P11274)
Sequence (P11274 whole entry): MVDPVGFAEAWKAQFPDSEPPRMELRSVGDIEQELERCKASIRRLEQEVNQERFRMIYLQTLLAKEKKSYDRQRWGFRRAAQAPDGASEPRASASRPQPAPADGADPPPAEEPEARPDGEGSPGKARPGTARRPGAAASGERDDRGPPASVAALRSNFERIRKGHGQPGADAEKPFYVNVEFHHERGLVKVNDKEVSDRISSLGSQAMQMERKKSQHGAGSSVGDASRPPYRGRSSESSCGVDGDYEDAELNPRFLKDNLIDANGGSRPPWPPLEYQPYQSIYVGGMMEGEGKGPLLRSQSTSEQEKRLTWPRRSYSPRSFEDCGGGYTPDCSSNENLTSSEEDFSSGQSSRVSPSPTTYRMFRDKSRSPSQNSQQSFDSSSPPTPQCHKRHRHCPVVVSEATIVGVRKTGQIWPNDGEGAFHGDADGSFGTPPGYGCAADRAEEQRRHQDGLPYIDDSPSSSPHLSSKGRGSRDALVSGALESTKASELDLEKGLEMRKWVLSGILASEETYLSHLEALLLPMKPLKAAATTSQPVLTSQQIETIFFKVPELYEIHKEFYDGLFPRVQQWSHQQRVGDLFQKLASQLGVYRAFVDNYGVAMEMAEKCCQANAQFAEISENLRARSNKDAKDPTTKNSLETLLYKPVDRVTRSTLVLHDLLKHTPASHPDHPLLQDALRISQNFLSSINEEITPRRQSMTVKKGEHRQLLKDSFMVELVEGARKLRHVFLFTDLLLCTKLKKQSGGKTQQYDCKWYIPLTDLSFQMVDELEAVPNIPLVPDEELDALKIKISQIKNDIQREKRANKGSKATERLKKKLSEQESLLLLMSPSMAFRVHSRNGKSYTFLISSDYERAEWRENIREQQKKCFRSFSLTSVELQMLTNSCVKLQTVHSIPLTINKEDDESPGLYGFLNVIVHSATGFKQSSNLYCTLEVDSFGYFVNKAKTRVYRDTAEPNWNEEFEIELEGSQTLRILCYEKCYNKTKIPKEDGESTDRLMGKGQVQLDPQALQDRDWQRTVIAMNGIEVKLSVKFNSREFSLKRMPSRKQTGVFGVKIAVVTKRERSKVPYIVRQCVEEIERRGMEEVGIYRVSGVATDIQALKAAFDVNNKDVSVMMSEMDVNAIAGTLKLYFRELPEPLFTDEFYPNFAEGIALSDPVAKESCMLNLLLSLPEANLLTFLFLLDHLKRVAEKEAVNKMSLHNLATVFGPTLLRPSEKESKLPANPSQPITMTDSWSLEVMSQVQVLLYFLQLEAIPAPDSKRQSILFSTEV
Assay: Inhibitory concentration required to inhibit Bcr-Abl tyrosine kinase
Settings: read-out: IC50
pIC50: −log10 of the molar value.
Recorded endpoint: pIC50

Query: Item under review: `Cc1ccc(NC(=O)Nc2ccc(N(C)C)cc2)cc1Nc1nccc(-c2cccnc2)n1` . Reported pIC50?
Reply: < 5.00

Query: GET /values?readout=pIC50&item= `Cc1ccc(NC(=O)Nc2cccc(Cl)c2)cc1Nc1nccc(-c2cccnc2)n1`
Reply: 6.00

Query: Fill blank: measured pIC50 of the molecule `CCN(CC)c1cccc(NC(=O)Nc2ccc(C)c(Nc3nccc(-c4cccnc4)n3)c2)c1` is ____.
Reply: < 6.00

Query: Given the molecule `Cc1ccc(NC(=O)NCCN2CCCC2)cc1Nc1nccc(-c2cccnc2)n1` , what is its reported pIC50?
Reply: < 5.05

Query: Which pIC50 reading was recorded for the molecule `CCN(CC)c1ccc(NC(=O)Nc2ccc(C)c(Nc3nccc(-c4cccnc4)n3)c2)cc1` ?
Reply: < 5.00

Query: Fill blank: measured pIC50 of the molecule `Cc1ccc(NC(=O)N2CCN(C)CC2)cc1Nc1nccc(-c2cccnc2)n1` is ____.
Reply: < 5.30
